Dear all, this message contains Ki results, target or system porcine pancreatic elastase (Sus scrofa, UniProt P00772).
Peptide text beside a SMILES is read from it. * marks the point of attachment. Isobutyryl = CC(C)C(=O)*; Pentanoyl = CCCCC(=O)*; PhAc = O=C(Cc1ccccc1)*; Piv = CC(C)(C)C(=O)*; Bz = O=C(c1ccccc1)*
The response must be a number in µM with no trailing unit.

CCNC(=O)[C@@H]1CCCN1C(=O)[C@H](C)NC(=O)C1CCCCC1; 10
CCNC(=O)[C@@H]1CCCN1C(=O)[C@H](C)NC(=O)C(C)(C)C [N-Pivaloyl-L-alanyl-L-proline ethylamide] (Piv-Ala-Pro-NHEt); 90
CCNC(=O)[C@H](C)NC(=O)[C@H](C)NC(=O)c1ccccc1 [N-Benzoyl-L-alanyl-L-alanine ethylamide] (Bz-Ala-Ala-NHEt); 120

Task: So what Ki did CCNC(=O)[C@@H]1CCCN1C(=O)[C@H](C)NC(=O)Cc1ccccc1 (PhAc-Ala-Pro-NHEt) get with porcine pancreatic elastase (Sus scrofa, UniProt P00772)?
Output: 86

Task: So what Ki did CCNC(=O)[C@@H]1CCCN1C(=O)[C@H](C)NC(=O)c1ccccc1 [N-Benzoyl-L-alanyl-L-proline ethylamide] (Bz-Ala-Pro-NHEt) get with porcine pancreatic elastase (Sus scrofa, UniProt P00772)?
Output: 26

Task: So what Ki did CCCCC(=O)N[C@@H](C)C(=O)N1CCC[C@H]1C(=O)NCC (Pentanoyl-Ala-Pro-NHEt) get with porcine pancreatic elastase (Sus scrofa, UniProt P00772)?
Output: 80

Task: So what Ki did CCNC(=O)[C@@H]1CCCN1C(=O)[C@H](C)NC(=O)C(C)C (Isobutyryl-Ala-Pro-NHEt) get with porcine pancreatic elastase (Sus scrofa, UniProt P00772)?
Output: 60

All figures here come from patent US4176116A.
